The values you see were collected from the supplement of paper PMC4466140.

- TARGET OR SYSTEM: CaNbp2
- METHOD NOTES: SPOT peptide array binding signal intensity (averaged, normalized) (arbitrary units (background-subtracted, floor 0; scale differs between SH3 domains)); higher = stronger binding of the SH3 domain to the peptide
Reported SPOT peptide array binding signal intensity values are given for each entry in this list.
No unit in the answer, only the number.

Example cases with answers are listed next.
[
  {
    "BINDER": "DKSRPPRPPPKPLHL",
    "EXPERIMENTAL VALUE": 56
  },
  {
    "BINDER": "SLSRRRFSLPSMPNV",
    "EXPERIMENTAL VALUE": 282
  },
  {
    "BINDER": "FYNRTAFQLPGDARV",
    "EXPERIMENTAL VALUE": 22
  },
  {
    "BINDER": "PKRRAPPPVPKKPSS",
    "EXPERIMENTAL VALUE": 3070
  },
  {
    "BINDER": "VATSTSPKLPPRGKQ",
    "EXPERIMENTAL VALUE": 2
  }
]

Returns the measured SPOT peptide array binding signal intensity for the input binder. Input: "KMSRSPPRPPSLKII" 1320

Please give the measured SPOT peptide array binding signal intensity for this binder: "ALFRLSFFFPLDPAY" 1460
